Data provenance is PubChem BioAssay.

We begin with a simple list: items and their reported inhibition.
Biological target: L-lactate dehydrogenase (Plasmodium falciparum (isolate CDC / Honduras)) (UniProt Q27743)
Sequence (Q27743 whole entry, looked up): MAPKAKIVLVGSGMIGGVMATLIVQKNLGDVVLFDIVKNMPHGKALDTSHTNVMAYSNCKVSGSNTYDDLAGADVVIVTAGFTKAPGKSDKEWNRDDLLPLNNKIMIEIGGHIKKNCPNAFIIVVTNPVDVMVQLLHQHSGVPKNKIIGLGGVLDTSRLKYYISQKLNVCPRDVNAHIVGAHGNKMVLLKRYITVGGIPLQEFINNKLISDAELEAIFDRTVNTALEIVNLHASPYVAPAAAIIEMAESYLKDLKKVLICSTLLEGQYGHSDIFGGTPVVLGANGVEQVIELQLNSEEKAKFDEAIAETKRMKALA
Assay: PfLDH activity inhibition – cell lysate, 3D7 strain, counter-screen for P. falciparum growth inhibition project (AID 2304);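 note: 0% = vehicle and 100% = reference inhibitor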
Details: P. falciparum 3D7 crude extract, LDH APAD/NBT absorbance; at 2 µM; active compounds read high
Calls of active or inactive are those of the source. The rule behind the calls is not given here.

Some molecules with known inhibition results, for comparison:
O=S(=O)(Nc1ccc(CCN2CCC(N3CCCCC3)CC2)cc1)c1ccc(Cl)cc1    -1% (inactive)
COc1ccc(NC(=O)[C@H](CC(C)C)Nc2ccnc(NCCc3ccc(F)cc3)n2)cc1    -2% (inactive)
Cc1cc(N[C@@H](Cc2ccccc2)C(=O)NC2CCCC2)nc(NCCCOC(C)C)n1    -3% (inactive)
O=C(Nc1ccc(Cl)cc1)Nc1ccc2c(c1)N1CCN=C1S2    -1% (inactive)
CC(CN(C)C)C(=O)Nc1cccc(-c2ccc(-c3nc4ccc(C(F)(F)F)cc4[nH]3)cc2)c1 (centres undefined)    -2% (inactive)

Query block: Fill in: inhibition of CC(C)C[C@H](Nc1ccc(C#N)c2ccccc12)C(=O)NC(C)(C)C12CC3CC(CC(C3)C1)C2 is ___
Result block: -1% (inactive)

Query block: inhibition for COc1ccc(-c2cccc(NC(=O)c3cccc(C#N)c3)c2)cc1CN(C)CCN(C)C ?
Result block: 3% (inactive)

Query block: Which inhibition is listed for CS(=O)(=O)c1cccc(-c2ccc3oc(C(N)=O)c(NC(=O)c4cccs4)c3c2)c1 ?
Result block: -8% (inactive)

Query block: Which inhibition is reported for this molecule? COc1c(C)cc(I)cc1CNCCCNc1cc(=O)c2ccccc2[nH]1
Result block: 2% (inactive)

Query block: Report inhibition for COc1ccc(CCNCc2cc3c(C(C)(C)C)nn(-c4ccc(Cl)cc4)c3[nH]c2=O)cc1OC please.
Result block: 5% (inactive)

Query block: // returns reported inhibition for input Cc1nc2ccc([N+](=O)[O-])cc2c(=O)n1OCc1ccccc1
Result block: -2% (inactive)

Query block: Given the molecule Cc1nc(/N=C(\N)NC(=O)NC2CCCCC2)nc2ccccc12 , what is its reported inhibition?
Result block: -2% (inactive)

Query block: If you can, please state the reported inhibition value of O=C(Nc1cccc(C(F)(F)F)c1)c1cccc(S(=O)(=O)NCC2CCCN(Cc3ccccc3)C2)c1 (centres undefined) .
Result block: 2% (inactive)

Query block: Look up inhibition: Nc1cccc(CNCc2ccc(-c3ccc(-c4nc5ccc(C(F)(F)F)cc5[nH]4)s3)cc2)c1
Result block: -2% (inactive)

Query block: What value of inhibition has been reported for the following molecule? FC(F)(F)c1ccc2nc(-c3ccc(-c4cccc(CNCC5CCCO5)c4)s3)[nH]c2c1 (centres undefined)
Result block: -7% (inactive)

Query block: Which inhibition is listed for COc1ccccc1CCNC(=O)c1cnc(N2CCN(c3ccncc3)CC2)c(Cl)c1 ?
Result block: 4% (inactive)

Query block: Fill blank: measured inhibition of the molecule Cc1cccc2[nH]c(-c3ccc(-c4ccc(NC(=O)NCc5cccc(F)c5)cc4)s3)nc12 is ____.
Result block: -6% (inactive)

Query block: Entry COc1ccc2nccc([C@@H](O)CN3CCC(NCC4COc5ccccc5O4)CC3)c2c1 (some centres undefined) has what inhibition?
Result block: 4% (inactive)

Query block: Endpoint output: inhibition of Cc1ccc2[nH]c(-c3ccc(/C=C/C(=O)NC4CCN(Cc5ccccc5)CC4)cc3)nc2c1C . Value?
Result block: 4% (inactive)

---

Target: L-lactate dehydrogenase (Plasmodium falciparum (isolate CDC / Honduras)) (UniProt Q27743)
Assay: PfLDH activity inhibition – cell lysate, 3D7 strain, counter-screen for P. falciparum growth inhibition project (AID 2304);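 note: 0% = vehicle and 100% = reference inhibitor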
Conditions: P. falciparum 3D7 crude extract, LDH APAD/NBT absorbance; at 2 µM; active compounds read high
Let's look at some compounds and their measured inhibition.
Write it as a number; the unit % goes unstated.

Worked cases, answers included:
CC(=NNC(=S)NC(c1ccccc1)c1ccccc1)c1ccccn1    -2
Nc1cc(-c2ccc3c(N)nccc3c2)ccc1Cl    -2
COc1cc(NC(=O)c2ccc3c(=O)n(Cc4ccccc4)c(=S)[nH]c3c2)cc(OC)c1OC    -3

Could you now consider this next compound?
Query block: Which measured inhibition value corresponds to C=CCc1cc(C2CCN(CCCCNC(=O)c3ccc(-c4ccc(C#N)cc4)cc3)CC2)c(OCC(N)=O)c2c1CCCC2 ?
Result block: -6

---

Assay: HepG2 cytotoxicity, primary screen, cytotoxicity control for P. falciparum antimalarial project, cell-based, ATP luminescence (AID 2303);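 note: 0% = DMSO wells and 100% = digitonin-killed cells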
Conditions: HepG2 viability, 24-48 h, at 10 µM, active compounds read high
reported.metric: inhibition (%)
Answer in %, number only, no unit symbol.

COc1ccc2nccc(NN=Cc3ccncc3)c2c1    4

Query block: Recorded inhibition for CCOC(=O)c1ccc2nc(-c3ccc(C(=O)NCc4ccc(C(C)(C)C)cc4)cc3)[nH]c2c1 , please?
Result block: -9

Query block: Which inhibition value belongs to NC(=O)c1cccc(CNC(=O)NC[C@H]2CN(Cc3ccc(Cl)c(Cl)c3)CCO2)c1 ?
Result block: -3

Query block: Which inhibition value belongs to COc1cccc(CCNc2nc(NCc3ccccc3)c3cc(OC)c(OC)cc3n2)c1 ?
Result block: 20

Query block: I am curious: what inhibition value has been reported for Cc1cc(-c2nc3ccc(N4CCN(C)CC4)cc3[nH]2)nn1Cc1cc(Cl)ccc1OCC(C)C ?
Result block: 41

Query block: State the recorded inhibition for this entry: CN1CCN(CC(=O)Nc2ccc(-c3ccc(-c4nc5ccccc5[nH]4)cc3)cc2)CC1
Result block: 18

---

Experiment: HepG2 cytotoxicity, primary screen, cytotoxicity control for P. falciparum antimalarial project, cell-based, ATP luminescence (AID 2303);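 note: 0% = DMSO wells and 100% = digitonin-killed cells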
Settings: HepG2 viability, 24-48 h, at 10 µM
Active and inactive are the calls of the source.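 The calls were made as follows: active = inhibition above 50%; inactive = the rest.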
Outcome field: choose from active, inactive

Some solved entries appear below for comparison.
COc1ccc(CCCCN2C(=O)C(c3ccccc3)(c3ccccc3)N=C2N)cc1    inactive
CCC(NC[C@@H](O)[C@H](Cc1ccccc1)NC(=O)c1cc(C2CCCC2)cc(N2CCCC2=O)c1)c1cccc(Cl)c1 (stereo not given in full)    inactive
O=C(/C=C/c1ccc(Cl)c(Cl)c1)N1CCC(NCc2ccc3[nH]ccc3c2)CC1    inactive
O=[N+]([O-])c1cccc(C(Nc2ccccn2)c2ccc3cccnc3c2O)c1 (stereo not given)    active
Cc1oc(-c2ccccc2)nc1CCOc1ccc(C[C@H](Nc2ccccc2C(=O)c2ccccc2)C(=O)NCc2ccccn2)cc1    inactive

Query block: Short answer needed: outcome of this test for Clc1cccc(C=NNc2nc(Nc3ccccc3)nc(Nc3ccccc3)n2)c1 ?
Result block: inactive

Query block: Query: recorded result category for Cc1ccc(NC(=O)NC2CCN(c3ccnc4ccccc34)C2)cc1 (stereo not given) in this test
Result block: inactive

Query block: What outcome does the record of this test show for CS(=O)(=O)CCNCc1cccc(-c2cc3nccc(Nc4ccc(Oc5ccccc5)cc4)c3cc2Cl)c1 ?
Result block: inactive

Query block: Each compound tested received a call. Report the one for Cc1noc(C)c1-c1cccc(CNCc2ccc(-c3ccc(-c4nc5ccc(C(F)(F)F)cc5[nH]4)cc3)cc2)c1 .
Result block: inactive

Query block: In this assay, the call recorded for CC(C)(C)c1nn(-c2ccccc2)c2[nH]c(=O)c(CNCc3ccccc3)cc12 was what?
Result block: inactive

Query block: Recorded test call requested for CN(C)CCOc1ccc(NC(=O)Nc2ccnc3c(Br)cccc23)cc1Cl
Result block: inactive

---

This listing pairs compounds with measured growth inhibition.
Assay: inhibition of 3D7 malaria parasite growth – strain 3D7 (AID 2306);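 note: 0% = DMSO wells and 100% = chloroquine plus artemisinin control wells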
Conditions: P. falciparum 3D7 erythrocytic growth, LDH absorbance, 72 h; at 2 µM; active compounds read high
Record the value in %, omitting the unit from your answer.

Example entries begin here.
CCCCN(CCCC)CCCN(CCCN(CCCC)CCCC)c1cc(C)nc(Nc2ccc3cc(Br)ccc3c2)n1    101
Cc1nnsc1C(=O)Nc1ccc(-c2cccc(-c3nc4ccc(F)cc4[nH]3)c2)cc1    96
Cc1nc(N)nc(N)c1OCc1cccc2ccccc12    96
CN(C)C(CNC(=O)c1cc(-c2ccncc2)c(-c2ccc(NC(=O)Nc3ccccc3)cc2)o1)c1ccccc1 (stereo not given)    101

Please turn your attention to the following entry.
Query block: I'd like to know its growth inhibition. The compound in question is CCc1ccc(NC(=O)N(CCCN2CCN(C)CC2)Cc2csc(-c3ccc(CNCc4ccccc4)cc3)n2)cc1
Result block: 99

---

Test: antimalarial activity against Dd2 strain (AID 2302);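 note: 0% = DMSO untreated growth and 100% = chloroquine plus artemisinin killed control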
Conditions: P. falciparum Dd2 in RBCs, LDH growth readout, 72 h; at 2 µM; active compounds read high
Below: a set of entries, each annotated with reported growth inhibition.
Quick reminder: number only, in %, skip the unit.

CCCNCc1ccc(-c2ccc(CN(CCOC)C(=O)CC3CCCC3=O)cc2)nc1 (stereo not given)    9
CN(C)CCNc1ncnc2c1[nH]c1ccc(Br)cc12    7
O=C(Nc1ccc(Br)cc1)N(CCN1CCOCC1)CC(O)COCc1ccc(Cl)c(Cl)c1 (stereo not given)    52
CC(C)C[C@H](NC(=O)c1cc2cc(OCCN3CCNCC3)ccc2o1)C(=O)NC1CC[C@@H](C)N(C(=O)Nc2ccc(Cl)cc2)CC1=O (stereo not given in full)    92
COc1c(C=NNc2nc(Nc3ccccc3)nc(Nc3ccccc3)n2)ccc(Br)c1O    37

Query block: Please give the measured growth inhibition for this compound: O=[N+]([O-])c1ccc(C(O)P(=O)(c2ccccc2)c2ccccc2)cc1 (stereo not given)
Result block: 1

Query block: Form field: reported growth inhibition of O=C(Nc1cccc(Cl)c1)OC1CCCN2CCCCC12 (stereo not given)
Result block: -4

Query block: For CC(=O)Nc1nc(C(=O)Nc2ccc(-c3cccc(-c4nc5c(C)cccc5[nH]4)c3)cc2)cs1 , what is its reported growth inhibition?
Result block: 73

Query block: Which growth inhibition value belongs to O=[N+]([O-])c1ccc(Nc2nc(NN=Cc3cccc(O)c3)nc(N3CCCC3)n2)cc1 ?
Result block: 9

Query block: Find the recorded growth inhibition belonging to C=CCc1cc(C)ccc1OCCCON1C(N)=NC(N)=NC1(C)C and report it.
Result block: 96

Query block: What growth inhibition value was documented for this compound, CC(C)(C)c1ccc(CN2CCC(CNC(=O)c3cc(-c4ccccc4)nc4ccccc34)CC2)cc1 ?
Result block: 36

Query block: Entry O=C(NCc1ccc(F)cc1)Nc1ccc(-c2ccc(-c3nc4ccccc4[nH]3)cc2)cc1 has what growth inhibition?
Result block: 98

Query block: Any idea what growth inhibition was measured for N=c1n(Cc2ccc(Cl)cc2)c2ccccc2n1CC(O)c1ccc(Cl)c(Cl)c1 (stereo not given) ?
Result block: 99

Query block: So what's the measured growth inhibition for this one? CCN1CCN(c2cc(C)c3cc(NC(=O)c4cccc(OC)c4)ccc3n2)CC1
Result block: 15

Query block: // growth inhibition lookup, key: c1ccc(Oc2ccc(Nc3ccnc4c(-c5ccccn5)cccc34)cc2)cc1
Result block: 58
